- Tested on: Pontederia vaginalis
- Assay method text: Herbicidal activity against Monochoria vaginalis assessed as growth inhibition in paddy condition under greenhouse at 5 g/ha measured after 18 days by preemergence activity assay
- Format: functional
- Protocol conditions: pre-emergence, 432 h, read-out: GI
Endpoint: inhibition of growth at 5 g/ha

Previously resolved entries follow.
// inhibition of growth at 5 g/ha lookup, key: CCOC(=O)c1cnn(-c2ccccc2)c1S(=O)(=O)NC(=O)Nc1nc(OC)cc(OC)n1 40%

inhibition of growth at 5 g/ha lookup needed for CCOC(=O)c1c(CC)nn(C)c1S(=O)(=O)NC(=O)Nc1nc(OC)cc(OC)n1 , thanks. 70%

New cases:
If you can, please state the reported inhibition of growth at 5 g/ha value of CCOC(=O)c1c(Cl)nn(C)c1S(=O)(=O)NC(=O)Nc1nc(OC)cc(OC)n1 . > 90%

May I ask what inhibition of growth at 5 g/ha has been recorded for COC(=O)c1cnn(C)c1S(=O)(=O)NC(=O)Nc1nc(OC)cc(OC)n1 ? > 90%

Entry COc1cc(OC)nc(NC(=O)NS(=O)(=O)c2c(C(=O)O)cnn2C)n1 has what inhibition of growth at 5 g/ha? < 5%

For the molecule CCOC(=O)c1c(OC)nn(C)c1S(=O)(=O)NC(=O)Nc1nc(OC)cc(OC)n1 , what inhibition of growth at 5 g/ha is on record? > 90%

Entry CCOC(=O)c1c(C)nn(C)c1S(=O)(=O)NC(=O)Nc1nc(OC)cc(OC)n1 has what inhibition of growth at 5 g/ha? > 90%

Using the record for CCOC(=O)c1nn(C)c(S(=O)(=O)NC(=O)Nc2nc(OC)cc(OC)n2)c1C(=O)OCC , report its inhibition of growth at 5 g/ha. < 5%

I would be grateful if you could share the reported inhibition of growth at 5 g/ha for CCOC(=O)c1cnn(CC)c1S(=O)(=O)NC(=O)Nc1nc(OC)cc(OC)n1 . > 90%

Item COc1cc(OC)nc(NC(=O)NS(=O)(=O)c2c(C(=O)N(C)C)cnn2C)n1 has what recorded inhibition of growth at 5 g/ha? < 5%

Suppose we examine the molecule CCCOC(=O)c1cnn(C)c1S(=O)(=O)NC(=O)Nc1nc(OC)cc(OC)n1 ; what inhibition of growth at 5 g/ha value has been reported? > 90%

Quick one: inhibition of growth at 5 g/ha for COc1cc(OC)nc(NC(=O)NS(=O)(=O)c2c(Br)cnn2C)n1 ? 70%

Fill in: inhibition of growth at 5 g/ha of CCCCOC(=O)c1cnn(C)c1S(=O)(=O)NC(=O)Nc1nc(OC)cc(OC)n1 is ___ < 5%

For CCOC(=O)c1cnn(C)c1S(=O)(=O)NC(=O)Nc1nc(C)cc(C)n1 , what is its reported inhibition of growth at 5 g/ha? < 5%

Fill in the blank: the reported inhibition of growth at 5 g/ha of CCOC(=O)c1cnn(C)c1S(=O)(=O)NC(=O)Nc1nc(OC)cc(OC)n1 [PYRAZOSULFURON ETHYL] is ____. > 90%

Request the reported inhibition of growth at 5 g/ha associated with CCOC(=O)c1cn[nH]c1S(=O)(=O)NC(=O)Nc1nc(OC)cc(OC)n1 70%

Fill blank: measured inhibition of growth at 5 g/ha of the molecule CCC(=O)c1cnn(C)c1S(=O)(=O)NC(=O)Nc1nc(OC)cc(OC)n1 is ____. 40%

Values were extracted from ChEMBL document CHEMBL3046449.
